- assay.explanation: Cmax in Sprague-Dawley rat at 5 mg/kg, po by HPLC-MS/MS analysis
- Assay type: ADME, organism-based
- Parameters: dose 5 mg/kg, route oral
- condition.summary: in vivo
result.type: Cmax (µg/mL)
Lab book: enter the figure in µg/mL, no units written.

For the compound shown here, "O=C(N[C@@H](C(=O)N1CCC[C@H]1c1ncc(-c2ccc(-c3ccc(-c4cnc([C@@H]5CCCN5C(=O)[C@H](NC(=O)C5CC5)c5ccccc5)s4)cc3)cc2)s1)c1ccccc1)C1CC1" , give the reported Cmax.
0.305

----------
- assay.explanation: Plasma clearance in Beagle dog at 0.1 mg/kg, iv by HPLC-MS/MS analysis
- Assay type: ADME, organism-based, Canis lupus familiaris
result.type: clearance (mL/min/kg)
Lab book: enter the figure in mL/min/kg, no units written.

For the compound shown here, "O=C(N[C@@H](C(=O)N1CCC[C@H]1c1ncc(-c2ccc(-c3ccc(-c4cnc([C@@H]5CCCN5C(=O)[C@H](NC(=O)C5CC5)c5ccccc5)s4)cc3)cc2)s1)c1ccccc1)C1CC1" , give the reported clearance.
1.3
